Reference for the values: patent US20110236969A1

Target: T1, human CD30 (commercial), conjugated to digoxigenin (human) (UniProt P28908)
T1 sequence (conjugated to digoxigenin (DIG), looked up): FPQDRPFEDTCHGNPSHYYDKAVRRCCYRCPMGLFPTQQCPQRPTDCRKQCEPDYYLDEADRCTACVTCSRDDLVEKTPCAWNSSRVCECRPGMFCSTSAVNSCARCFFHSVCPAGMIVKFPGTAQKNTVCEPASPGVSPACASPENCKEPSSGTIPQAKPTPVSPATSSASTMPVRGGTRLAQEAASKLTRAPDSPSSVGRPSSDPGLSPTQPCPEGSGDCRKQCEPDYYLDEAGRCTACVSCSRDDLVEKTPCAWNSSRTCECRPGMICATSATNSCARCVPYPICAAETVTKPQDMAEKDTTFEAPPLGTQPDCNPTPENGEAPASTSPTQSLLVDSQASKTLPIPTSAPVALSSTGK
Experiment: AlphaScreen competition with biotin-WT AC10
Kindly supply the reported Fold IC50 relative to WT values for the records listed here.
One number for each entry, in fold.

Below, each entry is followed by its recorded Fold IC50 relative to WT result.
AC10 H2L3 (H2 AC10 VH, L3 AC10 VL) (antibody, from a related filing, IgG1, V domains shown) VH: QIQLVESGGGLVKPGGSLRLSCAASGYTFTDYYITWVRQAPGQGLEWMGWIYPGSGNTKYNEKFQGRVTMTVDTSTSTAYMELSSLRSEDTAVYFCANYGNYWFAYWGQGTLVTVSS VL: DIVLTQSPDSLAVSLGERATINCKASQSVDFDGDSYMNWYQQKPGQPPKVLIYAASNLESGIPARFSGSGSGTDFTLTINSLEAEDAATYYCQQSNEDPWTFGGGTKVEIK	0.12
AC10 H2L1 (H2 AC10 VH, L1 AC10 VL) (antibody, from a related filing, IgG1, V domains shown) VH: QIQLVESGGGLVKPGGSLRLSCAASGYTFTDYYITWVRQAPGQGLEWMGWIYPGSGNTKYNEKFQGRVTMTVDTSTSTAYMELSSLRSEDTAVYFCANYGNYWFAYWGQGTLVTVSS VL: DIVLTQSPATLSLSPGERATLSCRASQSVDFDGDSYMNWYQQKPGQPPKVLIYAASNLESGIPARFSGSGSGTDFTLTISSLQPEDFATYYCQQSNEDPWTFGGGTKVEIK	0.06

--- query ---
Look at this binder and give its reported Fold IC50 relative to WT. AC10 H3L3 (H3 AC10 VH, L3 AC10 VL) (antibody, from a related filing, IgG1, V domains shown) VH: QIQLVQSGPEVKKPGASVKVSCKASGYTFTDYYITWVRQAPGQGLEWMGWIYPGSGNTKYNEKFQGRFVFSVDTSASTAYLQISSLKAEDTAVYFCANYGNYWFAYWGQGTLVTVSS VL: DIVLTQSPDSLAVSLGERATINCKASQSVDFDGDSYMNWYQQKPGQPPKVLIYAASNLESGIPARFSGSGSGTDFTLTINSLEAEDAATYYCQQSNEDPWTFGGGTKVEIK
1.59
